- System: SK-MEL-2 melanoma
- ASSAY SUMMARY: NCI tumour cell line growth inhibition, 48 h
Task for the reader: assign each of the following compounds its reported TGI.

Past entries and their recorded results:
>  <COMPOUND>
CC(C)CCC/C(CBr)=C(\Cl)CCl

>  <TGI>
2.97 µM

$$$$
>  <COMPOUND>
C#CCOC(=O)C(N)CCCN=C(N)N (stereo not drawn)

>  <TGI>
> 100 µM

$$$$
>  <COMPOUND>
CN(C)CCNC(=O)c1nc([N+](=O)[O-])cn1C

>  <TGI>
> 100 µM

$$$$
>  <COMPOUND>
Nc1ccc(-n2c(=O)oc3ccc(Cl)cc3c2=O)c(Cl)c1

>  <TGI>
0.807 µM

$$$$
>  <COMPOUND>
COc1ccc(-c2cc(-c3nnc(SCC(=O)Nc4ccc(C(C)=O)cc4)o3)c3ccccc3n2)cc1

>  <TGI>
> 100 µM

$$$$
>  <COMPOUND>
CN(c1ccccc1Cl)S(=O)(=O)c1ccccc1[N+](=O)[O-]

>  <TGI>
> 100 µM

$$$$
>  <COMPOUND>
Cc1cc(N=C2C=C(Nc3cc(C)on3)C(=O)c3ccccc32)no1

>  <TGI>
72.5 µM

$$$$

As a next step, examine the compound that follows.
Given item COc1cc(OC)cc(-c2cncn2-c2ccc(-c3nc4cc(OC)cc(OC)c4s3)cc2)c1 , the value recorded as its TGI is > 100 µM

====

- System: EKVX NSCLC
- ASSAY SUMMARY: NCI tumour cell line growth inhibition, 48 h; in the data active means GI50 below about 0.43 µM; inactive means the rest
In this exercise, the only acceptable responses are T for active, F for inactive

Solved cases below.
>  <COMPOUND>
COc1ccc2c(c1)C(=O)c1c-2n(CCCN2CCOCC2)c(=O)c2cc([N+](=O)[O-])ccc12

>  <ASSIGNED CATEGORY>
T

$$$$
>  <COMPOUND>
CCN1CCC(CC(=O)Nc2n[nH]c3nc(-c4cccs4)c(Br)cc23)CC1

>  <ASSIGNED CATEGORY>
F

$$$$
>  <COMPOUND>
Cc1ccc(C[P+](c2ccccc2)(c2ccccc2)c2ccccc2)cc1

>  <ASSIGNED CATEGORY>
T

$$$$
>  <COMPOUND>
Cc1ccccc1C(C(=O)NC1CCCCC1)N(C(=O)Cn1ccnc1C)c1cccc(F)c1 (centres undefined)

>  <ASSIGNED CATEGORY>
F

$$$$
>  <COMPOUND>
Cc1cn2c(=O)n(c1=O)Cc1ccccc1C2

>  <ASSIGNED CATEGORY>
F

$$$$

Lookup: Dear all, I need the recorded test outcome for COc1cc2c(cc1OCCCN1CCN(c3cc(=O)oc4c(C)c(OC)ccc34)CC1)N=C[C@@H]1CCCN1C2=O , thank you.
Found: F

Lookup: Test call for this compound, please: Cc1ccc(/C(=C/C=C(C#N)C#N)Sc2ccccn2)cc1
Found: F

Lookup: In this assay, the call recorded for COc1ccc(-n2c3c(c4c(CN(C)C)c(O)c(C)cc42)CCc2ccccc2C3=O)cc1 was what?
Found: F

Lookup: How did this test come out for Cc1ccc2[nH]c(C(=O)NN3C(=O)C(C)SC34CCCCC4C)c(-c3ccccc3)c2c1 (centres undefined) ?
Found: F

Lookup: // return assay outcome for CCC[CH2][Sn]1([CH2]CCC)[O]C(=O)CN=Cc2ccccc2[O]1
Found: F

Lookup: Recorded test call requested for C=C1C(=O)O[C@H]2C[C@@H]1CCC1(C)OC1CC/C(C)=C/CC[C@H]2C (some centres undefined)
Found: F

Lookup: What outcome does the record of this test show for Nc1ccc(-n2c(=O)oc3ccc(Cl)cc3c2=O)c(Cl)c1 ?
Found: T

Lookup: Record request — test call for CC(=O)OC12CC(C)C3(O)C4C=C(C)C(=O)[C@@]4(O)CC(CO)=C[C@H]3C1C2(C)C (some centres undefined)
Found: F

Lookup: So what was the verdict on COc1ccc2[nH]cc(-c3nc(-c4c[nH]c5ccncc45)cs3)c2c1 in this test?
Found: F
